- measured.target: horseradish peroxidase (HRP) tagged delF508-CFTR (Homo sapiens, UniProt P13569, DEL508-508)
- Construct: expressed in transfected cells
- Sequence (P13569 with tags, fused parts or gaps DEL508-508): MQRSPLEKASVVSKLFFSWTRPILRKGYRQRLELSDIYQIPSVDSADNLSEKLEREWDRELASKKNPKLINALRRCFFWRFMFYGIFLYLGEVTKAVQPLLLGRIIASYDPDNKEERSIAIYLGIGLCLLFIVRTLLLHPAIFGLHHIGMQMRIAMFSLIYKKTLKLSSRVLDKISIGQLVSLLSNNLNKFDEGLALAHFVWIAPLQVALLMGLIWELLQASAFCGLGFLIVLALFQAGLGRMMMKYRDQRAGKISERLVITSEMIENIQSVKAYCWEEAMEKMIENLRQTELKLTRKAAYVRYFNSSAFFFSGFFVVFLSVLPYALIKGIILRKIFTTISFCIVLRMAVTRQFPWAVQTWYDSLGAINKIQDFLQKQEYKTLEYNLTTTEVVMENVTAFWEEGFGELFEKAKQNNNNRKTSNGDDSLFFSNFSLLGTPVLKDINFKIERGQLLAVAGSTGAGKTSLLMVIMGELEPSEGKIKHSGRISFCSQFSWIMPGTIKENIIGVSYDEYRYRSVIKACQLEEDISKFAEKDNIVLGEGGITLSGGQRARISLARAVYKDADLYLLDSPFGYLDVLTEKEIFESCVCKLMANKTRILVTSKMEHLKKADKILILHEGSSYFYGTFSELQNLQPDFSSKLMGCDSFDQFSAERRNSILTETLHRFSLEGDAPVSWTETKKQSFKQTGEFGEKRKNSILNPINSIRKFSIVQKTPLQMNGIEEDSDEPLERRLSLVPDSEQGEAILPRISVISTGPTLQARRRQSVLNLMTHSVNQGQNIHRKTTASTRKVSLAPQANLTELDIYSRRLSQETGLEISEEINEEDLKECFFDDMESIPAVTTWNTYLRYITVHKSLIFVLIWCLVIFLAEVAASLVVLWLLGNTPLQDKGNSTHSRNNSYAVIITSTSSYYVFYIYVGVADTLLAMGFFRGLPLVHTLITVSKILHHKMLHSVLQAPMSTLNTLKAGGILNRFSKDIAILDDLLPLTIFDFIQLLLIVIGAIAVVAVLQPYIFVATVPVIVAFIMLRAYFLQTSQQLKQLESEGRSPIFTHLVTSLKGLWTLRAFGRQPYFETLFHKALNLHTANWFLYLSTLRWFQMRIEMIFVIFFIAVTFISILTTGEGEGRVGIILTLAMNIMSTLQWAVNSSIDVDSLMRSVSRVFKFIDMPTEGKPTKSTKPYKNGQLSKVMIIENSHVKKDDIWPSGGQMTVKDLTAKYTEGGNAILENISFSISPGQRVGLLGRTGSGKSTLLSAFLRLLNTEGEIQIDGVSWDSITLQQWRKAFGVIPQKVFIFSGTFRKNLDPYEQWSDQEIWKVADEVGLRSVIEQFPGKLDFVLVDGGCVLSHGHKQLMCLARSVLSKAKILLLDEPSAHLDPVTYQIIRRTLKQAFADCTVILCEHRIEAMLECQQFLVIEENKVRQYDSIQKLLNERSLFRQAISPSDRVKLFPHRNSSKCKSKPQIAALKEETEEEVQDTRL
- run.description: Measurement of delF508-CFTR-HRP surface expression in CFBE41o- cells;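 as to DelF508-CFTR-HRP Amax %: percent efficacy relative to reference corrector lumacaftor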
- Format: cell-based
- test.conditions: delF508-CFTR-HRP surface expression, CFBE41o- cells; read-out: DelF508-CFTR-HRP Amax %
Counter-ions that a name gives are not always drawn.
Measured Emax values are reported for all entries that follow.
reported.metric: Emax

INSERT INTO assay_data (compound, experimental_value) VALUES
  ('Cc1ccccc1-c1nc(NS(=O)(=O)c2cccc(N)n2)ccc1Br', '486%'),
  ('Cc1ccccc1-c1nc(NS(=O)(=O)c2cccc(N3CC[C@@H](N)C3)n2)ccc1C(F)(F)F [Example 119, Hydrochloride]', '411%'),
  ('Cc1cccc(C)c1-c1nc(NS(=O)(=O)c2cccc(N[C@H]3C[C@H](O)C3)n2)ccc1Cl', '384%'),
  ('CCOC(=O)C1(C)CCN(c2cccc(S(=O)(=O)Nc3ccc(C(F)(F)F)c(-c4cccc(F)c4C)n3)n2)CC1', '828%'),
  ('Cc1ccccc1-c1nc(NS(=O)(=O)c2cccc(N3CCN4C[C@@H](F)C[C@@H]4C3)n2)ccc1C(F)(F)F', '636%'),
  ('Cc1ccc(F)cc1-c1nc(NS(=O)(=O)c2cccc(N3CCN[C@H](CO)C3)n2)ccc1C(F)(F)F [Example 175, Hydrochloride]', '530%'),
  ('Cc1ccccc1-c1nc(NS(=O)(=O)c2cccc(N3CCNC[C@H]3C)n2)ccc1C(F)(F)F [Example 171, Hydrochloride]', '505%'),
  ('CCOC(=O)C1(C)CCN(c2cccc(S(=O)(=O)Nc3ccc(C(F)(F)F)c(-c4ccccc4C)n3)n2)CC1', '801%'),
  ('Cc1ccc(F)cc1-c1nc(NS(=O)(=O)c2cccc(N3CCC(C)(C(=O)O)CC3)n2)ccc1Cl', '198%'),
  ('Cc1ccc(F)cc1-c1nc(NS(=O)(=O)c2cccc(N)n2)ccc1Cl', '612%'),
  ('Cc1ccccc1-c1nc(NS(=O)(=O)c2cccc(N3CCC(C(=O)O)CC3)n2)ccc1C(F)(F)F', '132%'),
  ('Cc1ccccc1-c1nc(NS(=O)(=O)c2cccc(N3CC(O)(C(F)(F)F)C3)n2)ccc1C(F)(F)F', '943%'),
  ('Cc1ccccc1-c1nc(NS(=O)(=O)c2nc(N)ccc2F)ccc1Cl', '404%'),
  ('Cc1cccc(C)c1-c1nc(NS(=O)(=O)c2cccc(N3CCNC(=O)C3)n2)ccc1Cl', '729%'),
  ('CCOC(=O)C1(C)CCN(c2cccc(S(=O)(=O)Nc3ccc(Cl)c(-c4ccccc4C)n3)n2)CC1', '620%');

---

Measured pEC50 values are reported for all entries that follow.
- measured.target: horseradish peroxidase (HRP) tagged delF508-CFTR (Homo sapiens, UniProt P13569, DEL508-508)
- Construct: expressed in transfected cells
- run.description: Measurement of delF508-CFTR-HRP surface expression in CFBE41o- cells
- Assay type: cell-based
- test.conditions: delF508-CFTR-HRP surface expression, CFBE41o- cells; read-out: DelF508-CFTR-HRP EC50
pEC50: −log10 of the molar value. Where a name gives a salt, the structure may show the parent alone.
reported.metric: pEC50

INSERT INTO results (molecule, experimental_value) VALUES
  ('Cc1ccccc1-c1nc(NS(=O)(=O)c2cccc(N[C@H]3CCOC[C@H]3O)n2)ccc1C(F)(F)F (single isomer, unassigned)', 5.70),
  ('Cc1ccccc1-c1nc(NS(=O)(=O)c2cccc(N3CC[C@@H](N)C3)n2)ccc1C(F)(F)F [Example 119, Hydrochloride]', 5.74),
  ('Cc1ccc(F)cc1-c1nc(NS(=O)(=O)c2ccnc(N3CCOC[C@H]3C)c2)ccc1C(F)(F)F', 5.76),
  ('Cc1cc(F)ccc1-c1nc(NS(=O)(=O)c2cccc(N)n2)ccc1Cl', 5.64),
  ('Nc1ccc(S(=O)(=O)Nc2ccc(Cl)c(-c3ccccc3C3CC3)n2)cn1', 5.63),
  ('Cc1ccccc1-c1nc(NS(=O)(=O)c2cccc(N3CC[C@H](N)C3)n2)ccc1C(F)(F)F [Example 120, Hydrochloride]', 5.55),
  ('Cc1c(C#N)cccc1-c1nc(NS(=O)(=O)c2ccnc(N)c2)ccc1Cl', 5.39),
  ('Cc1cccc(C)c1-c1nc(NS(=O)(=O)c2cccc(N3CCN(C(=O)OC(C)(C)C)CC3=O)n2)ccc1Cl', 6.01),
  ('Cc1ccc(F)cc1-c1nc(NS(=O)(=O)c2cccc(N3CCNCC3)n2)ccc1C(F)(F)F [Example 152, Hydrochloride]', 5.57),
  ('Cc1ccc(F)cc1-c1nc(NS(=O)(=O)c2ccnc(N3CCOC[C@H]3C)c2)ccc1Cl', 5.50),
  ('Cc1c(F)cccc1-c1nc(NS(=O)(=O)c2ccnc(N3CCOC[C@H]3C)c2)ccc1Cl', 5.46),
  ('Nc1cccc(S(=O)(=O)Nc2ccc(Cl)c(-c3cccc(C(F)(F)F)c3)n2)n1', 5.37),
  ('[2H]C([2H])([2H])c1ccccc1-c1nc(NS(=O)(=O)c2ccnc(N)c2)ccc1Cl', 5.66),
  ('Cc1ccccc1-c1nc(NS(=O)(=O)c2cccc(N3CCC[C@H](N)C3)n2)ccc1C(F)(F)F [Example 103, Hydrochloride]', 5.53),
  ('Cc1cc(F)ccc1-c1nc(NS(=O)(=O)c2cccc(N3CC(O)C3)n2)ccc1C(F)(F)F', 5.76);
